Test system: MDA-MB-231 breast
protocol description: NCI-60 one-dose screen, 48 h (100 = growth as untreated, 0 = no growth, -100 = all killed)
condition label: 10 µM unless noted
The panel holds about 83,000 compounds, 20% with a hit somewhere; the sample as a whole holds those more often.
growth values, listed per item
Please respond with the number in % and leave the unit unwritten.

compound=CCCCC(=O)Nc1ncc(Cc2ccccc2Cl)s1 assayed_system="MDA-MB-231 breast" measured_metric=growth value_observed=53.3
compound=COc1ccc(/C=C/C(=O)c2cc3c(N)c(C(=O)Nc4ccc(OC)cc4)sc3nc2C)cc1 assayed_system="MDA-MB-231 breast" measured_metric=growth value_observed=24.7
compound=COc1ccc(Cl)cc1Nc1nc(C(F)(F)F)ccc1C(=O)N/N=C/c1ccccc1Cl assayed_system="MDA-MB-231 breast" measured_metric=growth value_observed=-7.46
compound="Cc1nc2sc(C(=O)Nc3ccc(Cl)cc3)c(N)c2cc1C(O)c1ccccc1 (stereo not given)" assayed_system="MDA-MB-231 breast" measured_metric=growth value_observed=52.2

Kindly review the next compound as well.
Input line: Record request: growth value, item CC(C)c1ccc(-n2c(=S)[nH]c3sc4c(c3c2=O)CCC(=O)C4)cc1
Output line: 68.3

----------
System: CAKI-1 renal
protocol description: NCI-60 one-dose screen, 48 h (100 = growth as untreated, 0 = no growth, -100 = all killed)
condition label: 10 µM unless noted
Compounds without any hit were thinned out: in the full panel of roughly 83,000, 20% have a hit. Calls of active or inactive are those of the source. How the source made its calls: active means growth percent below 10; inactive means the rest.
growth values, listed per item

Reference set (4 entries):
chemical_structure=Fc1ccc2c(c1)c(-c1nc(-c3c[nH]c4ncccc34)cs1)cn2CCCN1CCOCC1 assayed_system="CAKI-1 renal" value_observed="56.2% (inactive)"
chemical_structure=CC[C@]12C=CCN3CC[C@@]4(c5ccc(OC)cc5N(C)[C@H]4[C@@](O)(C(=O)OC)[C@@H]1OC(=O)CCCN1CCOCC1)[C@@H]32 assayed_system="CAKI-1 renal" value_observed="94.2% (inactive)"
chemical_structure=COc1ccc(/C=C/C(=O)c2ccc(NC(=O)CSc3nnc(-c4cc(-c5ccccc5)nc5ccccc45)n3-c3ccccc3)cc2)cc1 assayed_system="CAKI-1 renal" value_observed="90% (inactive)"
chemical_structure=CCn1cc(C2=C(c3cn(C)c4ncccc34)C(=O)NC2=O)c2cccnc21 assayed_system="CAKI-1 renal" value_observed="61.6% (inactive)"

Kindly review the next compound as well.
Input line: Record request: growth value, item O=c1ccc2nc(C(F)(F)F)nn(-c3ccccc3)c-2c1
Output line: 56% (inactive)

----------
Tested on: NCI-H460 lung
protocol description: NCI-60 one-dose screen, 48 h
condition label: 10 µM unless noted
The panel holds about 83,000 compounds, 20% with a hit somewhere; the sample as a whole holds those more often. The source made the active and inactive calls. Rule for the calls: active = growth percent below 10; inactive = the rest.
Thanks in advance; please answer with one of these: 1 = active, 0 = inactive

Answered examples (6):
compound="COc1cc(C2=NN(C(C)=O)C(c3ccc(N(C)C)cc3)C2)cc(OC)c1OC (stereo not given)" class=0
compound="O=C1OCC2=C1C(c1cccc(C(F)(F)F)c1)c1cc3c(cc1N2CCO)OCO3 (stereo not given)" class=0
compound=N#Cc1c(-c2ccccc2)c(C#N)c2c(C#N)c(N)nn2c1N class=0
compound="COc1ccc(C2=CN3CC=CCC3CC2=O)cc1 (stereo not given)" class=0
compound=COc1cccc(/C=C/C(=O)c2cc3c(N)c(C(=O)Nc4cccc(Cl)c4C)sc3nc2C)c1 class=1
compound="COc1ccc(C2CC(c3ccc(Nc4nc(Nc5ccc(F)cc5)nc(Nc5ccc(F)cc5)n4)cc3)=NN2C(C)=O)cc1 (stereo not given)" class=0

Input line: Could you please tell me the result logged for Clc1ccc(-c2cn3ccsc3n2)c(Cl)c1Cl in this assay?
Output line: 0

Input line: Could you please tell me the result logged for Cc1c2ccccc2nc2c1ccc1cccnc12 in this assay?
Output line: 0

Input line: Could you please tell me the result logged for O=C(O)CCCn1c(SCc2c(Cl)cccc2Cl)nc2ccsc2c1=O in this assay?
Output line: 0

Data origin: PubChem BioAssay (NCI)
